# system under test: human transferrin receptor (hTfR) (human) (UniProt P02786)
# Sequence (P02786 whole entry): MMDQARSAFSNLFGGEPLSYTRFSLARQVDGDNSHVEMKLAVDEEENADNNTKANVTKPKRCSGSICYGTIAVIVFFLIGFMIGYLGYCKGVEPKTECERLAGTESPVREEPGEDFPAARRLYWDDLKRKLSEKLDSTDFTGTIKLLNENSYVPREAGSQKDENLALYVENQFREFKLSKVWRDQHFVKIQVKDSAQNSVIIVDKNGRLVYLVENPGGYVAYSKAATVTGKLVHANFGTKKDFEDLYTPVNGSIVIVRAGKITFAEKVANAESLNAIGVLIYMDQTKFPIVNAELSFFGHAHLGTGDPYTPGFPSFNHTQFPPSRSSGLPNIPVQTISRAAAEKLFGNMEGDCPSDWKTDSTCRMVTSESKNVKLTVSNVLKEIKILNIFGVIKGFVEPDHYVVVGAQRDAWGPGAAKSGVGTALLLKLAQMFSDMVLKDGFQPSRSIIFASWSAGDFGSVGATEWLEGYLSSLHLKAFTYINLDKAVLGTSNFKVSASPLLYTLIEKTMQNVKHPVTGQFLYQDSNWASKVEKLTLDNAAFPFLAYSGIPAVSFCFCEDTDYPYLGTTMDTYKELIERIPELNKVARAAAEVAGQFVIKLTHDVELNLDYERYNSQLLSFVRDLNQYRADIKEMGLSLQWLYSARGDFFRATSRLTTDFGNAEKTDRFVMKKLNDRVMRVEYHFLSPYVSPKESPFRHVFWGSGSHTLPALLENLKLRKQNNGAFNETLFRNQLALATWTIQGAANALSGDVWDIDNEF
# run description: Scatchard analysis, 125I-labelled protein (tyrosine of the peptide iodinated) on CEF+hTfR cells on ice
measurement label: pKd
Schema: pKd number; meaning minus log10 of the concentration expressed in molar units.

Ask: Find the measured pKd of GFP-HAIYPRH (Seq. ID No. 1) and report it.
Reply: 3.44
